Molecular target: recombinant human M4 muscarinic acetylcholine receptor (Homo sapiens, UniProt P08173)
Sequence (P08173 1-479): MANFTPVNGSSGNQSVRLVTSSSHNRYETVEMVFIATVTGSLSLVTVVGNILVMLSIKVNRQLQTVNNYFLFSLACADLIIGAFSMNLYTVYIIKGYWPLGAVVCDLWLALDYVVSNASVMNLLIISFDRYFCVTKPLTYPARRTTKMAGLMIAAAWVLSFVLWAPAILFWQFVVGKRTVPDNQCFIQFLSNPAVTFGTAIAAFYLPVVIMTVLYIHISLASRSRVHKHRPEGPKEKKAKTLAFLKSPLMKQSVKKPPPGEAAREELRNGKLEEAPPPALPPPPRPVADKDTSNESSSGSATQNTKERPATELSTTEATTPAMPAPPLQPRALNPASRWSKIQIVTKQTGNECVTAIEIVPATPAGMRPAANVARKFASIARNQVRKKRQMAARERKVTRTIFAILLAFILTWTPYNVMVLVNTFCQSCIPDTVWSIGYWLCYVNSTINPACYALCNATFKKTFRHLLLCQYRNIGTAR
Test: Muscarinic receptor binding assay, M4
Conditions: 3H-N-Methylscopolamine 0.8 nM, CHO membranes
Method: Competition binding experiments were conducted by incubating membranes with a fixed concentration of radioligand in the presence of variable concentrations of test compounds. ^3H—N-Methylscopolamine at 0.8 nM was used as the radioligand for all receptor subtypes. […] Following incubations, the membranes were washed the bound radioactivity was measured. […] Ki was obtained using the Cheng Prusoff correction using Kd values that were experimental determined previously under these assay conditions.
METRIC: Ki (µM)
Answers are plain numbers, in µM.

Ask: So what's the measured Ki for this one? "CN(C)CCC=C1c2ccccc2CCc2ccccc21"
Result: 0.0239

====

Molecular target: recombinant human H1 histamine receptor (Homo sapiens, UniProt P35367)
Sequence (P35367 whole entry): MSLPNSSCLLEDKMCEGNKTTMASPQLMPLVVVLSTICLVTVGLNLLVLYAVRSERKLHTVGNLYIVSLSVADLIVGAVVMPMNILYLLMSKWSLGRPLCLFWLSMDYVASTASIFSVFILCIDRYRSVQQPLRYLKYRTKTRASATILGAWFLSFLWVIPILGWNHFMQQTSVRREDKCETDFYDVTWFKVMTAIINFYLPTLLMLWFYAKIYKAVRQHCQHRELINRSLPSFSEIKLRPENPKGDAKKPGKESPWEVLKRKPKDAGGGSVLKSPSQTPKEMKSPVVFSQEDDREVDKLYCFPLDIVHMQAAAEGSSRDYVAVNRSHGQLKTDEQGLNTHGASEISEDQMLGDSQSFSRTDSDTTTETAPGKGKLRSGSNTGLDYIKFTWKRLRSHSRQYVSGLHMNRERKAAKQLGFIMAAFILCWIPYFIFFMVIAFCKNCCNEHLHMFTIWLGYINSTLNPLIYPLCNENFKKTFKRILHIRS
Experiment: Histamine receptor radioligand binding assay, H1
Details: [3H]-Pyrilamine 1.2 nM, CHO membranes
METRIC: Ki (nM)
Numbers only, in nM.

Use these answered entries as a reference point.
SMILES NOTATION	UNIT OF MEASURE	REPORTED RESULT
COCCOCCOCCOCCOCCOCCOCCN(C)CCC=C1c2ccccc2CCc2ccccc21	nM	7.44
COCCOCCOCCOCCOCCN(C)CCC=C1c2ccccc2CCc2ccccc21	nM	3.57
COCCOCCOCCN(C)CCC=C1c2ccccc2CCc2ccccc21	nM	1.81

Now for a further compound.
Ask: Quick check: Ki on recombinant human H1 histamine receptor (Homo sapiens, UniProt P35367), item "COCCOCCOCCOCCOCCOCCN(C)CCC=C1c2ccccc2CCc2ccccc21" ?
Result: 6.13

====

Would you kindly list pKa for each of these compounds?
Test: pKa and LogP determinations
Format: physicochemical
Answers are plain numbers.

SMILES NOTATION	pKa
COCCOCCOCCOCCOCCN(C)CCCN1c2ccccc2CCc2ccccc21	8.55

Parameter requested: pKa. Apply to each item below.
1. COCCOCCOCCNCCCN1c2ccccc2CCc2ccccc21
2. COCCOCCOCCOCCOCCOCCOCCOCCN(C)CCCN1c2ccccc2CCc2ccccc21
3. COCCOCCOCCN(C)CCCN1c2ccccc2CCc2ccccc21
4. COCCOCCOCCOCCOCCOCCOCCNCCCN1c2ccccc2CCc2ccccc21

Result:
1. 8.96
2. 8.66
3. 8.47
4. 8.94
